assay: Components of the Cytosolic LPS Sensing Pathway: Gene Identification via Genome-wide siRNA Screen; details: RAW264.7 macrophages, IL-1a HTRF, actives lie on both sides, screened at 100 nM (by protocol), cells primed 5 h with Pam3CSK4 first;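 further: robust z of the log signal after scaling to non-targeting control siRNA wells of the plate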
About 3,700 (7%) of roughly 53,000 sequences were called active. The sample as a whole holds a higher share of actives than the screen did.
# Lookup of reported z-score keyed by entry

{"columns": ["CHAIN", "z-score"],
 "data": [
  ["GCCCUUUCAUCAAUAAUGUTT against Slc12a7", "-0.113 (inactive)"],
  ["CGUUUGACACUUUUGCCUUTT against Mid1", "1.09 (inactive)"],
  ["CCAUGUCAAUAUAGCUGUCTT against Igfbpl1", "2.25 (active)"],
  ["GGAUGAAGUUCUUUUUCAATT against Pdcd11", "2.28 (active)"],
  ["GGGUGUCAUAUAUAUUGCUTT against Gpr83", "0.889 (inactive)"],
  ["GUGCCUCUCAUCACUAUCUTT against Olfr571", "0.501 (inactive)"],
  ["GCAAGAAGCCUGCCAAUAUTT against Etd", "2.05 (active)"],
  ["GGAAGCACAUAGAAGCCAATT against Defb11", "-0.504 (inactive)"],
  ["GGUGGACAUUCCUAAGAUUTT against Ago1", "-0.97 (inactive)"],
  ["CCGCUUUUGUCAAGUUUUCTT against Asap1", "2.65 (active)"],
  ["GGAUCUGAAAAAAUUAAGCTT against Stat2", "0.65 (inactive)"],
  ["UGAUAUUUGGUGUAUUCAGTT against Olfr972", "-2.06 (active)"],
  ["CCUACUUCCGAGGUUUCUUTT against Ifnz", "-0.493 (inactive)"],
  ["GGAUUUGUUCAAAUAACAGTT against Lsm14a", "-0.664 (inactive)"],
  ["GGUGAUGCAGCAGAUCAUUTT against Nfyc", "0.0427 (inactive)"],
  ["GCCUCAAUUGUUUACUUAUTT against Edn2", "0.404 (inactive)"],
  ["CCCAAUUUUUAGUUGCUAATT against Rab2b", "0.0495 (inactive)"],
  ["CCUUGGCAGGUAUAGUGUUTT against Klk9", "-1.09 (inactive)"],
  ["GGAAAAUUGAUAGCAAGCUTT against Fbxw15", "1.9 (inactive)"],
  ["CCUGCAUGCCUAUGUGCGUTT against Ace", "2.89 (active)"],
  ["GGGAAAUUAUUACCAAAAGTT against N4bp1", "-0.83 (inactive)"],
  ["GGAAGUAUCGAGAUUCAUGTT against Pitpnm3", "0.0165 (inactive)"],
  ["GAUCAAAGCGGCGUACUACTT against Dnajc30", "0.738 (inactive)"],
  ["CCAAAUCUCUCAAUUUAGGTT against Taf9b", "0.265 (inactive)"],
  ["GGAGCUACUGUACCUUGCUTT against Ncapg2", "-1.29 (inactive)"],
  ["GGAUCCUGGAUAAUCUGGGTT against Plscr1", "-1.35 (inactive)"],
  ["GGUGCAAGAUCAAGAACUGTT against C1ra", "2.78 (active)"],
  ["GGAACAAGUUUGUGCUUUCTT against Cpd", "0.728 (inactive)"],
  ["CCACCAAGGAGACAUAGAUTT against Nans", "2.85 (active)"],
  ["CCAGGAACCUAUUGAAUCUTT against Plpp7", "1.15 (inactive)"],
  ["GGCCUCAGACCUUCUAUGATT against Mtap", "-0.149 (inactive)"],
  ["GGAGAGUAAAACCAAUACATT against Fam76a", "-0.0433 (inactive)"],
  ["GGCCUUCGAAAUAAUUCUGTT against Ppp1r14d", "-0.605 (inactive)"],
  ["GGAUGACCUUGAAAGCAGUTT against Usp29", "-0.677 (inactive)"],
  ["GGUGUUGAAAUAAUUUCUCTT against Phospho2", "-0.285 (inactive)"],
  ["GCACAAUUGGAAUUGUACATT against Ubqln2", "-2.18 (active)"],
  ["GCACUUCCGACUUUUUCACTT against Mettl24", "-1.69 (inactive)"],
  ["GGAUGGUUACUAUCAGACUTT against Exoc3", "0.187 (inactive)"],
  ["GCUAGUCUUAUGGACCAGATT against Eaf2", "-0.764 (inactive)"],
  ["GGCUAAAACUGCACAUAAATT against Pyroxd1", "-3.43 (active)"],
  ["GGCGAGCAUCGCUAUUGACTT against Zcrb1", "0.734 (inactive)"],
  ["GCGACUCACUAUUUGGGCATT against Ell3", "0.471 (inactive)"],
  ["GGUGCAGCACUUCAAAGUGTT against Grap", "2.41 (active)"],
  ["GACAGUGAAGGCUUGCCAUTT against 1700019M22Rik", "-0.45 (inactive)"],
  ["CCUACCCGAUUAUUCUUACTT against C2cd2l", "0.125 (inactive)"],
  ["CGGCCGUCAGCUUCUUUUATT against Olfr283", "-0.204 (inactive)"],
  ["GGAAGAAAGUGAGCCUUGUTT against Senp6", "-2.14 (active)"],
  ["GGCAGAGGAAAUCAUGAAGTT against Clpp", "-1.05 (inactive)"],
  ["UGGUUGUAUUAUUCUGUUGTT against Defb38", "0.188 (inactive)"],
  ["GGUAUUGCUUUCACAUUAUTT against Efr3a", "0.434 (inactive)"]
]}
